- Target system: T1, hVEGF-A (8-109) (human, UniProt P15692 214-315)
- T1 construct: residue numbers count on mature VEGF-A; dimer
- T1 sequence (looked up): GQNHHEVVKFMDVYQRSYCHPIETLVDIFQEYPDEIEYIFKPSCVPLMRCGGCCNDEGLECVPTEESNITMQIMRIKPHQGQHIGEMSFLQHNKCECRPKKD
- Assay notes: spot phage ELISA
Overview of reported ELISA across a group of binders:
Form rule: numeric answer, no unit written next to it.

Examples with answers:
ELISA measured on GCNIMLPFWGCGTNFLCLAGCVCQYYQSCG (designed binder) [VEGF_CKP9.54.31] = 2.3

ELISA measured on GCQVLQPSWGCKQDSDCLAGCVCHWYQSCG (designed binder) [VEGF_CKP9.L1.79] = 1.2

ELISA measured on GCALLQPLWGCKQDSDCLAGCVCRWYNSCG (designed binder) [VEGF_CKP9.69] = 1

Next:
ELISA measured on GCQVMRPFWGCKQDSDCLAGCVCHWYQSCG (designed binder) [VEGF_CKP9.L1.7] = 1.5

ELISA measured on GCKKWQWWYMCKQDSDCLAGCVCYPWTECG (designed binder) [VEGF_CKP4] = 2.6

ELISA measured on GCPTTRFKQYCKQDSDCLAGCVCGPNGFCG (designed binder) [VEGF_CKP6] = 3.5

ELISA measured on GCNIMLPFWGCGKDFHCLAGCVCQYYQSCG (designed binder) [VEGF_CKP9.54.56] = 2.3

ELISA measured on GCNIMLPFWGCGQSFECLAGCVCQYYQSCG (designed binder) [VEGF_CKP9.54.1] = 2.4

ELISA measured on GCNIMLPFWGCGYDLQCLAGCVCQYYQSCG (designed binder) [VEGF_CKP9.54.87] = 2.4

ELISA measured on GCRDLTINWALFCKQDSDCLAGCVCQMFNSCG (designed binder) [VEGF_CKP7.73] = 1.2
